Assay: Selectivity index, ratio of IC50 for cytotoxicity against human THP1 cells to MIC for Mycobacterium tuberculosis H37Rv
Format: toxicity, cell-based
Conditions: THP-1 cells, read-out: Selectivity Index
quantity: selectivity ratio
Write the number on its own, no unit after it.

What value of measured selectivity ratio is listed for Cc1cc(=O)oc2cc(-c3cn([C@@H]4O[C@H](CO)[C@@H](O)[C@H]4O)nn3)ccc12 ?
25

Report selectivity ratio for Cc1cc(=O)oc2cc(OCc3cn([C@@H]4O[C@H](CO)[C@@H](O)[C@H]4O)nn3)ccc12 please.
75.4

Look up selectivity ratio: O=c1cc(-c2ccccc2)c2ccc(OCc3cn([C@@H]4O[C@H](CO)[C@@H](O)[C@H]4O)nn3)cc2o1
75.4

// query selectivity ratio value for entry [H]/N=C(/N)N[C@H]1[C@H](O)[C@@H](O)[C@H](O[C@@H]2O[C@@H](C)[C@](O)(C=O)[C@H]2O[C@@H]2O[C@@H](CO)[C@H](O)[C@@H](O)[C@@H]2NC)[C@@H](N/C(N)=N\[H])[C@@H]1O
600
